- Tested on: Enterococcus faecalis (5 strains)
- PROTOCOL_SUMMARY: MIC range, broader panel of Quotient Bioresearch strains (Table 3)
- CONDITION_CONTEXT: read-out: MIC Range Median, Enterococcus faecalis (5 strains)
ASSAY_METRIC: MIC50 (µg/mL)
Unit µg/mL implied. Number only.

Example entries and their recorded answers appear below.
# COMPOUND, MIC50 (µg/mL)
measured = [
    ("Cc1c(-c2ccc(O)cc2)ccn2c(=O)c(C(=O)[O-])cc(C3CC3)c12.[K+] [Example 46 K salt]", 0.03),
    ("Cc1c(-c2cc(F)c(N)cc2F)ccn2c(=O)c(C(=O)[O-])cc(C3CC3)c12.[K+] [Example 28 K salt]", 0.25),
]

--- query ---
Observed MIC50 on Enterococcus faecalis (5 strains) for Cc1c(-c2cc(F)c(N)c(F)c2)ccn2c(=O)c(C(=O)[O-])cc(C3CC3)c12.[K+] [Example 39 K salt] , please.
0.03

* * *

Listed here: items and their measured MIC.
- Test system: Group C Streptococcus (4 strains)
- PROTOCOL_SUMMARY: MIC range, broader panel of Quotient Bioresearch strains (Table 3)
- CONDITION_CONTEXT: read-out: MIC Range Low, Group C Streptococcus (4 strains)
Answer format: value, then unit.

# COMPOUND, MIC
rows = [
    ("Cc1c(-c2ccc(CN)cc2)ccn2c(=O)c(C(=O)[O-])cc(C3CC3)c12.[K+] [Example 31 K salt]", "0.06 µg/mL"),
    ("Cc1c(-c2ccc(N)nc2)ccn2c(=O)c(C(=O)[O-])cc(C3CC3)c12.[K+] [Example 21 K salt]", "0.03 µg/mL"),
]

Fill blank: measured MIC of the compound Cc1c(-c2ccc(N)c(F)c2)c(F)cn2c(=O)c(C(=O)[O-])cc(C3CC3)c12.[K+] [Example 1 K salt] is ____.
0.12 µg/mL

Hey, just so you know, these numbers are from patent US8962842B2.
